Biological target: recombinant catalytic domain of huPA-H99Y (residues 159-411) (human, UniProt P00749 179-431)
Assay: ITC; MicroCal ITC200; peptide injected into 5-50 µM huPA-H99Y catalytic domain; 20 mM sodium phosphate pH 7.4, 140 mM NaCl, 25°C; one-binding-site model
Details: both partners purified
Bridge positions count the residues as written; N and C are the ends. Square brackets hold non-standard residues; d marks the D form. Ends that are not written are not given here. Ala(1-amidino-4-piperidyl) = N=C(N)N1CCC(C[C@H](N)C(=O)O)CC1; Phe(4-guanidino) = N=C(N)Nc1ccc(C[C@H](N)C(=O)O)cc1
List of Kd values.

binder: CPAYS[Ala(1-amidino-4-piperidyl)]YLDC (disulfide 1-10; not fully specified) [mupain-1-16]
Kd, nM: 380
--
binder: CPAYS[Phe(4-guanidino)]YLDC (disulfide 1-10) [mupain-1-12]
Kd, nM: 400
--
binder: CPAYS[Ala(1-amidino-4-piperidyl)]YLAC (disulfide 1-10; not fully specified) [Mupain-1-16 D9A]
Kd, nM: 134
